biological target: Histone deacetylase 1 (Homo sapiens, UniProt Q13547); assay: Inhibition of HDAC1 (unknown origin)
Sequence (Q13547 whole entry): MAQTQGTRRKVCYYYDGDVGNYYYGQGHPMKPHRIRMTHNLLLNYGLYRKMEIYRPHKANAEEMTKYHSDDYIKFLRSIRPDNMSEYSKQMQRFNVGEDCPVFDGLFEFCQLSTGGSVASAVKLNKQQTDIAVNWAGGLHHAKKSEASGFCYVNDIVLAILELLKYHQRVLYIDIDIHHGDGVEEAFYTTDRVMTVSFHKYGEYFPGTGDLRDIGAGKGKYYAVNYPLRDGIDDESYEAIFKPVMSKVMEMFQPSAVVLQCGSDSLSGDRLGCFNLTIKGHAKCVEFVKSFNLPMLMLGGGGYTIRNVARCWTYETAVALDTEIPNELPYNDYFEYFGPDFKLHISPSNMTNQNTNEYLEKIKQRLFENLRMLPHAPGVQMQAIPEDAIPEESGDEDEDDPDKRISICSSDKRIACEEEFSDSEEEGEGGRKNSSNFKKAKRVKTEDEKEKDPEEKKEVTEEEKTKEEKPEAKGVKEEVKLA
For each entry below, report its pIC50 value.
pIC50 is defined as minus the log10 of a concentration measured in mol/L.

## Input Could you share which pIC50 value was measured for CC(=O)N1c2ccc(-c3ccc(NC(=O)CCCCCCC(=O)NO)cc3)cc2[C@H](NC(=O)OC(C)C)C[C@@H]1C ?
## Output 6.82

## Input Next: Cc1noc(C)c1-c1ccc2c(c1)c(Cc1ccc(F)cc1)cn2CCCCCCC(=O)NO
## Output 6.82

## Input Request: Cc1ccccc1OS(=O)(=O)C1CC2OC1C(c1ccc(NC(=O)CCCCCCC(=O)NO)cc1)=C2c1ccc(O)cc1 (stereo unspecified)
## Output 7.66

## Input Repeat with COc1cc(OC)c2c(=O)[nH]c(-c3cc(C)c(OCCCCC(=O)NO)c(C)c3)nc2c1
## Output 6.82

## Input Continue with O=C(CCCCOc1ccccc1C(=O)Nc1cccc2[nH]cnc12)NO
## Output 6.82

## Input Cc1noc(C)c1-c1cc(NC(=O)CCCCCC(=O)NO)cc(C(=O)c2ccccc2)c1 ?
## Output 6.82

====

target: Histone deacetylase; assay: Inhibition of HDAC (unknown origin); format: protein assay, Homo sapiens
measured parameter: IC50 (nM)
Respond with the bare value in nM.

## Input Could you share which IC50 value was measured for COc1cc(OC)c2c(=O)[nH]c(-c3ccc(OCc4ccc(/C=C/C(=O)NO)cc4)cc3)nc2c1 ?
## Output 291

## Input Another: Cc1ccccc1Cc1cn(CCCCCC(=O)NO)c2ccc(-c3c(C)noc3C)cc12
## Output 291

## Input Try this molecule too: Cc1cccc(Cc2cn(CCCCCC(=O)NO)c3ccc(-c4c(C)noc4C)cc23)c1
## Output 291

## Input Next entry: Cc1cccc(Cc2cn(CCCCCCC(=O)NO)c3ccc(-c4c(C)noc4C)cc23)c1
## Output 291

## Input How about this molecule: COc1cc(OC)c2c(=O)[nH]c(-c3ccc(OCCCCCCC(=O)NO)cc3)nc2c1
## Output 291

## Input Likewise for Cc1noc(C)c1-c1ccc2c(c1)c(Cc1ccc(F)cc1)cn2CCCCCC(=O)NO ?
## Output 291

## Input What about COc1cc(OC)c2c(=O)[nH]c(-c3ccc(OCCCC(=O)NO)cc3)nc2c1 ?
## Output 32

## Input Query COc1cc(OC)c2c(=O)[nH]c(-c3ccc(OCc4cc(C)c(/C=C/C(=O)NO)c(C)c4)cc3)nc2c1 next
## Output 291

## Input Try the molecule Cc1noc(C)c1-c1ccc2c(c1)c(Cc1ccccc1)cn2CCCCCC(=O)NO
## Output 291

## Input Next record, please: COc1cc(OC)c2c(=O)[nH]c(-c3ccc(Oc4ccc(C(=O)NO)cn4)cc3)nc2c1
## Output 291

====

system: THP-1; experiment: Growth inhibition of human THP-1 cells; assay type: functional
Field: GI50. Provide a value for each of the compounds that follow.
Quick note: give the figure in µM, leave out the unit.

## Input I am curious: what GI50 value has been reported for Cc1noc(C)c1-c1ccc2c(c1)c(Cc1ccccc1)cn2CCCCCC(=O)NO ?
## Output 15.5

## Input Then this compound: Cc1noc(C)c1-c1ccc2c(c1)c(CCc1ccccc1)cn2CCCCCC(=O)NO
## Output 15.5

## Input For Cc1noc(C)c1-c1ccc2c(c1)c(CCc1ccc(F)cc1)cn2CCCCCC(=O)NO then?
## Output 15.5

Where do these numbers come from? They come from ChEMBL document CHEMBL4725227.
